- SYSTEM_NAME: Hck (UniProt P08631)
- Sequence (P08631 whole entry, looked up): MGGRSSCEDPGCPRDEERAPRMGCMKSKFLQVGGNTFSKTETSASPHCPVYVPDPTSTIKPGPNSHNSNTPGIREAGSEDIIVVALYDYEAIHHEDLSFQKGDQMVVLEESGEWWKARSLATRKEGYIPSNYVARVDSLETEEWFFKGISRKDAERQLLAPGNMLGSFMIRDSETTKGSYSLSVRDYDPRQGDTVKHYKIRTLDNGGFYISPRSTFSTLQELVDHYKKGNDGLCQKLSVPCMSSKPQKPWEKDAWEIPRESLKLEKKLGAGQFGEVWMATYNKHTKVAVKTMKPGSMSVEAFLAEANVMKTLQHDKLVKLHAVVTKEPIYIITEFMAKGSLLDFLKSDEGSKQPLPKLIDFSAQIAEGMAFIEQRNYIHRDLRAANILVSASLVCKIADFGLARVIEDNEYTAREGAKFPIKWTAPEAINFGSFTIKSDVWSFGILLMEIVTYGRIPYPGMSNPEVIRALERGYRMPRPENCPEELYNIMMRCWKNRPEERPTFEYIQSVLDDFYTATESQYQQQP
- PROTOCOL_NOTES: phosphorylation enrichment, bacterial display (enrichment ratio); higher = better substrate or ligand; peptides without Tyr show the background;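 further: 11-residue human phosphosite peptides and single-mutation variants displayed on the E. coli surface, counted by deep sequencing, each peptide's frequency after selection divided by its frequency in the unselected input library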;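 further: frequency after pTyr selection over input frequency; kinase dosed for 20-30% of maximal phosphorylation in three min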
Measured phosphorylation enrichment of individual entries
Answer field: number only, no words.

Would you please look over these solved cases?
                   query_sequence  endpoint_result
0  YRKNTYNVKST [SYNE2_Y575_I574T]            0.346
1           FTNRNYDLDYD [MYC_Y12]            0.594
2  TSNQEYLYLSM [FGFR1_Y766_D768Y]             2.67

The recorded phosphorylation enrichment for entry ALVFLSFCIIF [SIGLEC12_Y494_Y494S] equals 0.466

Kindly note the recorded phosphorylation enrichment for KKYPDYIQSAM [SGMS2_Y59_I62S] , which is 0.413

phosphorylation enrichment for FQHLRYIKQLG [SAMHD1_Y146_R143H] is 0.395

Measured phosphorylation enrichment, QLCVNYPGGYT [PROS1_Y259] : 0.965

Record NRVEIYEKTVE [CYFIP1_Y108] . Reported phosphorylation enrichment: 0.628

Short answer for AQESNYRLLRQ [SLC20A2_Y377_R382Q] : phosphorylation enrichment was 0.478

Query AKAEICEMRPL [COX10_Y97_Y97C] yields phosphorylation enrichment of 0.608

Kindly note the recorded phosphorylation enrichment for GGFTWYCDGKK [PROS1_Y266_C265W_YF] , which is 0.389

Record summary for DPAFGYEDFTR [SESN2_Y323_T320A] : reported phosphorylation enrichment = 0.594

Sure, the documented phosphorylation enrichment for YIRKDYEACKA [BBS4_Y48] is 0.404

Kindly note the recorded phosphorylation enrichment for IRQDDYESLKE [MTR_Y921_H920D] , which is 0.571

Record summary for PVDVAYRHGFF [PLEC_Y2967_R2969H_YF] : reported phosphorylation enrichment = 0.553

phosphorylation enrichment for TGGLEYIVPLM [CLCN4_Y548] is 0.42

Reported phosphorylation enrichment for SYPHEYGSQEG [RBM10_Y48_R46H] was 0.458

Summary for this sequence, KPRKPYTIKKP [BRD2_Y715] : phosphorylation enrichment is 0.924

response.value for PEFMVYKPQME [CCRL2_Y170_V168M] (field: phosphorylation enrichment) = 0.661

Record FQNSLYAPDFS [FAM92A_Y226_R222Q_YF] , field phosphorylation enrichment: 2.12
